Tested on: Jurkat human leukemia T cells
Assay: Cell cycle stage in Jurkat cells (propidium iodide flow cytometry)
Format: cell-based
Conditions: Jurkat, 24 h, 100 μg/ml
observation_type: Arrest (cell cycle)

sequence_text="GGGTGG [SEQ ID NO:25 phosphorothioate]" subject_of_test="Jurkat human leukemia T cells" observation_type="Arrest (cell cycle)" reported_value=None
sequence_text="GGGTGG [SEQ ID NO:25]" subject_of_test="Jurkat human leukemia T cells" observation_type="Arrest (cell cycle)" reported_value="End SE"
sequence_text="GGAAGG (unmodified DNA) [SEQ ID NO:42]" subject_of_test="Jurkat human leukemia T cells" observation_type="Arrest (cell cycle)" reported_value=End
sequence_text="TCCATCGCCAAGGAGATCGAGCTGGAGGATCCGTACGAGAAGATC (unmodified DNA) [BCG A-3, reference compound]" subject_of_test="Jurkat human leukemia T cells" observation_type="Arrest (cell cycle)" reported_value=None
sequence_text="GTGTGTGTGTGTGTGTGTGTGTGTGTG [SEQ ID NO:1] (chemistry not given here)" subject_of_test="Jurkat human leukemia T cells" observation_type="Arrest (cell cycle)" reported_value="End SE"
